I'd be grateful if you could share measured Bliss excess for these entries.
- Tested on: LCLC-97TM1 (Non-Small Cell Lung Carcinoma);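 further: after 72 h of two-drug dosing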
- TEST NAME: Bliss excess, mean over the matrix (fraction); higher = more synergy
Give only the figure.

Prompt: # get_value(readout='Bliss excess', item= Cc1nc(Nc2ncc(C(=O)Nc3c(C)cccc3Cl)s2)cc(N2CCN(CCO)CC2)n1 [Dasatinib] + CC(=O)Nc1cccc(-n2c(=O)n(C3CC3)c(=O)c3c(Nc4ccc(I)cc4F)n(C)c(=O)c(C)c32)c1 [Trametinib] (first compound max 2 µM, 7x7, partner max 1 µM) )
Completion: 0.0455

Prompt: # get_value(readout='Bliss excess', item= CC(=O)c1c(C)c2cnc(Nc3ccc(N4CCNCC4)cn3)nc2n(C2CCCC2)c1=O [Palbociclib] + Cn1cnc2c(F)c(Nc3ccc(Br)cc3Cl)c(C(=O)NOCCO)cc21 [Selumetinib] (first compound max 10 µM, 7x7, partner max 10 µM) )
Completion: 0.0728

Prompt: # get_value(readout='Bliss excess', item= CC(=O)c1c(C)c2cnc(Nc3ccc(N4CCNCC4)cn3)nc2n(C2CCCC2)c1=O [Palbociclib] + CN(CC[C@H](CSC1=CC=CC=C1)NC2=C(C=C(C=C2)S(=O)(=O)NC(=O)C3=CC=C(C=C3)N4CCC(CC4)[C@H](C5=CC=CC=C5C6=CC=C(C=C6)Cl)O)S(=O)(=O)C(F)(F)F)CCO [AZD4320] (first compound max 10 µM, 7x7, partner max 1 µM) )
Completion: -0.0326

Cited source for all entries: the supplement of paper PMC11061612
